Subject Of Test: ScLsb3
Method: SPOT peptide array binding signal intensity (averaged, normalized) (arbitrary units (background-subtracted, floor 0; scale differs between SH3 domains)); higher = stronger binding of the SH3 domain to the peptide
Label Satisfied when SPOT peptide array binding signal intensity is at or above 700; otherwise label Not satisfied.

| Binder | Category |
| --- | --- |
| PPPPPPPPPPPLPQS | Not satisfied |
| NPLPKEPRLPKRKVA | Satisfied |
| RTRRRPPPPPIPSTQ | Satisfied |
| DKSRPPRPPPKPLHL | Satisfied |
| SRSKPLPLTPNSKYN | Not satisfied |
| VATSTSPKLPPRGKQ | Satisfied |
| RRARRQMGIPTISQV | Not satisfied |
| LKRITSPPLPPRADS | Satisfied |
| LKPPIGRPPKFPKSP | Not satisfied |
| HGKRRAPLLLAKLDV | Not satisfied |
| NILKRRPLKLEAPSK | Not satisfied |
| SSSSSPPPLPTRRDH | Satisfied |
| QRIRKIPGIPLMSVG | Satisfied |
| LASNSPPVYPKRIRH | Satisfied |
